Molecular target: T1, rhCDH19(1-43)::FLAG::rhCDH19(44-772), on 293T cells (rhesus macaque, UniProt Q9H159 44-772 (human entry))
T1 construct: Entry holds leader (1-43), Flag tag and CDH19 part; leader left out; also called Rh EC1-5
T1 chain: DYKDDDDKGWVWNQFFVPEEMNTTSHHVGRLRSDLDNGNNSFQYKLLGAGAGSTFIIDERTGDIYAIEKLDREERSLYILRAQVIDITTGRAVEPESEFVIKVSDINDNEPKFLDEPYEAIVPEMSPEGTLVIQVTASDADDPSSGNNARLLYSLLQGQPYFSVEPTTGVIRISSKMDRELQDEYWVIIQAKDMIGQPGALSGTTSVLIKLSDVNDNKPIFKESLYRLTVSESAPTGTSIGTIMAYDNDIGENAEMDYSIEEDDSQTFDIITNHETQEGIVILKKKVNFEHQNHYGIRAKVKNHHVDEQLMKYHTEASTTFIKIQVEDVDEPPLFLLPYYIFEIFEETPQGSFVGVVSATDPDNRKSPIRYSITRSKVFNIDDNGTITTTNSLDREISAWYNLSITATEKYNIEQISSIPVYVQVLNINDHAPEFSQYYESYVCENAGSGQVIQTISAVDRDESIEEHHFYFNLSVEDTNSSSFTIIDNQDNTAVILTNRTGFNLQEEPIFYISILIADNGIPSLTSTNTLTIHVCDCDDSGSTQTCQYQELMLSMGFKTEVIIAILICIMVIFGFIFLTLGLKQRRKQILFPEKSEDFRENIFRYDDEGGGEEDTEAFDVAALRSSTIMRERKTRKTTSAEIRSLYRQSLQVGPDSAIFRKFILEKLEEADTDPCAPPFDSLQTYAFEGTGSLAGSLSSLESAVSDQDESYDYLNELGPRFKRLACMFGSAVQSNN
Assay: FACS, transfected 293T

>  <BINDER>
hu anti-<huCDH19> 23A10.3 (1-474)(L92Q) VH::huIgG1z / 23A10.3 (1-231)(C42S) VL::huLLC-C2 (Ab ID 14077) (antibody, V domains shown, Engineered variant of 23A10) VH: QVQLVESGGGVVQPGRSLRLSCAASGFTFSRYGIHWVRQAPGKGLEWVAVIWYDGSNKYYADSVKGRFTISRDNSKNTLYLQMNSLRAEDSAVYYCARRAGIPGTTGYYYGMDVWGQGTTVTVSS VL: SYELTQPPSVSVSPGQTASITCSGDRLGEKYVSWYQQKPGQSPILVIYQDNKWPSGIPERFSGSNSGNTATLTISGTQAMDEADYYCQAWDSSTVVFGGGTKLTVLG

>  <binding result>
binds

$$$$
